B1: LYP tagged with the myc epitope, Arg620 variant (myc-LYPR) [human] / HA-CSK [not stated] (parent complex)
chain 1: MDQREILQKFLDEAQSKKITKEEFANEFLKLKRQSTKYKADKTYPTTVAEKPKNIKKNRYKDILPYDYSRVELSLITSDEDSSYINANFIKGVYGPKAYIATQGPLSTTLLDFWRMIWEYSVLIIVMACMEYEMGKKKCERYWAEPGEMQLEFGPFSVSCEAEKRKSDYIIRTLKVKFNSETRTIYQFHYKNWPDHDVPSSIDPILELIWDVRCYQEDDSVPICIHCSAGCGRTGVICAIDYTWMLLKDGIIPENFSVFSLIREMRTQRPSLVQTQEQYELVYNAVLELFKRQMDVIRDKHSGTESQAKHCIPEKNHTLQADSYSPNLPKSTTKAAKMMNQQRTKMEIKESSSFDFRTSEISAKEELVLHPAKSSTSFDFLELNYSFDKNADTTMKWQTKAFPIVGEPLQKHQSLDLGSLLFEGCSNSKPVNAAGRYFNSKVPITRTKSTPFELIQQRETKEVDSKENFSYLESQPHDSCFVEMQAQKVMHVSSAELNYSLPYDSKHQIRNASNVKHHDSSALGVYSYIPLVENPYFSSWPPSGTSSKMSLDLPEKQDGTVFPSSLLPTSSTSLFSYYNSHDSLSLNSPTNISSLLNQESAVLATAPRIDDEIPPPLPVRTPESFIVVEEAGEFSPNVPKSLSSAVKVKIGTSLEWGGTSEPKKFDDSVILRPSKSVKLRSPKSELHQDRSSPPPPLPERTLESFFLADEDCMQAQSIETYSTSYPDTMENSTSSKQTLKTPGKSFTRSKSLKILRNMKKSICNSCPPNKPAESVQSNNSSSFLNFGFANRFSKPKGPRNPPPTWNI
chain 2: MSAIQAAWPSGTECIAKYNFHGTAEQDLPFCKGDVLTIVAVTKDPNWYKAKNKVGREGIIPANYVQKREGVKAGTKLSLMPWFHGKITREQAERLLYPPETGLFLVRESTNYPGDYTLCVSCDGKVEHYRIMYHASKLSIDEEVYFENLMQLVEHYTSDADGLCTRLIKPKVMEGTVAAQDEFYRSGWALNMKELKLLQTIGKGEFGDVMLGDYRGNKVAVKCIKNDATAQAFLAEASVMTQLRHSNLVQLLGVIVEEKGGLYIVTEYMAKGSLVDYLRSRGRSVLGGDCLLKFSLDVCEAMEYLEGNNFVHRDLAARNVLVSEDNVAKVSDFGLTKEASSTQDTGKLPVKWTAPEALREKKFSTKSDVWSFGILLWEIYSFGRVPYPRIPLKDVVPRVEKGYKMDAPDGCPPAVYEVMKNCWHLDAAMRPSFLQLREQLEHIKTHELHL

- Variants of: B1
- Experiment notes: co-immunoprecipitation (IP anti-myc, IB HA), blot densitometry; transfected HEK293 cells; parent: 48.1
Recorded measurements of log10 response, one per entry
For clarity, the numbers are log10 values of response expressed in arbitrary units.

Record chain 1 R620W, chain 1 P695A , field log10 response: -1.15

Recorded log10 response (variant chain 1 R620W ): 1.26
